Assay: growth suppression of PTEN-deleted HCT116, pilot screen, cell-based, HCT116 clonal line, CellTiter-Glo (AID 824);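 also: 0% = 20 µM Hyamine control and 100% = vehicle cell control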
Conditions: 60 h, at 10 µM, stronger effect = lower value
Inconclusive results are not listed.
measuredAttribute: viability (%)
Quick note: give the figure in %, leave out the unit.

Below, 2 compounds whose answers are already recorded.
In [3]: df
Out[3]:
                                  compound  observedvalue
0  COc1ccccc1N1CCN(c2cc(C)nc3nc(C)nn23)CC1           83.6
1         COc1ccc(OCC(=O)N(C)Cc2ccccc2)cc1           91.7

# query: viability of entry CC(=O)C1C(c2ccc(OC(F)F)cc2)NC(=O)NC1(O)C(F)(F)F (centres undefined)
97.4

Can you share its viability? I mean this compound: `CCOC(=O)N1CCC(Nc2c(OCC)c(=O)c2=O)CC1`
96.4

---

Items are presented alongside their recorded viability.
Experiment: growth suppression of beta-catenin knockout HCT116, pilot screen, human colon tumor cells (AID 823);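 also: 0% = wells killed by 20 µM Hyamine and 100% = untreated DMSO cell wells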
Conditions: CellTiter-Glo, 60 h, at 10 µM, stronger effect = lower value
Inconclusive results are not listed.
Numbers only; they are read as %.

>>> print(df.to_string())
                                   compound  unitannotation  observedvalue
0           O=C(Cn1cc2c(n1)CCCC2)NCc1cccnc1               %            102
1  O=C(NC1CCCc2ccccc21)C1CCN(c2c(N3CCCC3)c(=O)c2=O)CC1 (centres undefined)               %           92.4
2  COC(=O)c1cc(COc2ccc3oc(C)c(C(=O)OC)c3c2)c(C)o1               %           74.4
3              COc1ccc(OC)c2c1CC(C)(C)NC2=O               %           88.3
4        Cc1ccccc1NC(=O)CCn1c(=O)oc2ccccc21               %            101
5  Cc1nn(-c2ccccc2)c2c1C(c1ccccc1)C(C#N)=C(N)O2 (centres undefined)               %           91.3
6  CCOC(=O)c1ccc(NC(=O)C(C)N2C(=O)c3ccccc3C2=O)cc1 (centres undefined)               %            104
7  COc1ccc2nc(SCc3nc(N)nc(Nc4ccccc4)n3)[nH]c2c1               %           67.7

--- query ---
# input compound: `O/N=C1/CCCSc2ccccc21` ; wanted: its viability
96.6

---

Test: growth suppression of beta-catenin knockout HCT116, pilot screen, human colon tumor cells (AID 823);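 also: 0% = wells killed by 20 µM Hyamine and 100% = untreated DMSO cell wells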
Conditions: CellTiter-Glo, 60 h, at 10 µM, stronger effect = lower value
Records with an inconclusive call do not appear.
measuredAttribute: viability (%)
Write the answer as a number in %, unit excluded.

Examples with their reported viability follow.
In [3]: df
Out[3]:
                                   molecule  observedvalue
0  CC1CC(C)CN(CCCNC(=O)CNC(=O)Cn2ccc3ccccc3c2=O)C1 (stereo unspecified)            104
1              Cc1ccc(OCCNC(=O)c2ccco2)cc1C            102
2  O=C(O)c1ccc(NC(=O)C2C3CCC(C3)C2C(=O)O)cc1 (stereo unspecified)            101
3               CCOC(=O)c1cnn(CC2CCCCC2)c1N           92.4
4      FC(F)(F)c1cccc(-c2ccc(-c3csnn3)o2)c1           82.2
5  Cc1csc(NC(=O)C(CC(C)C)NS(=O)(=O)c2ccc3c(c2)oc(=O)n3C)n1 (stereo unspecified)            103
6  Cc1ccc(-c2nc(CSCC(=O)N3CCN(c4ccccn4)CC3)c(C)o2)cc1           20.3
7  O=C(C1CCN(c2ncnc3c2sc2cccc(F)c23)CC1)N1CCOCC1           77.2
8  COc1ccc(NS(=O)(=O)c2ccc(OC)c(OC)c2)cc1OC             92
9  COc1cc(NC(=O)CCCC(=O)OCC(F)(F)C(F)F)nc(OC)n1            102

# get_value(readout='viability', item= `Cc1ccc(S(=O)(=O)NCC(=O)N2CCC(C)CC2)cc1` )
104

// viability lookup, key: `COc1ccc2cc(CCNC(=O)c3c(-c4ccccc4Cl)noc3C)c(=O)[nH]c2c1`
103

Endpoint output: viability of COc1ccc(C2C(C(N)=O)=C(C)Nc3nc(-c4ccccc4)nn32)cc1OC (stereo unspecified) . Value?
95.3

Given CCCN1C(=O)c2cc(C(=O)Nc3ccccc3CC)ccc2C1O (stereo unspecified) , state its recorded viability.
101

Fill blank: measured viability of the molecule `Nc1cc(C(=O)c2cccs2)ccc1Cl` is ____.
90.9

// lookup viability for CC1CCC(n2c(=S)[nH]c3ccccc3c2=O)CC1 (stereo unspecified)
81.5

---

Experiment: viability gain of MRP-1-high H69AR cells under doxorubicin, pilot screen, MRP-1 activator project, CellTiter-Glo, duplicate (AID 807);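 also: compound pretreatment 18-22 h then 72 h combined with doxorubicin; 0% = doxorubicin alone and 100% = vehicle without doxorubicin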
Conditions: H69AR viability with doxorubicin, CellTiter-Glo luminescence; at 10 µM; stronger effect = higher value
measuredAttribute: viability increase (%)
Respond with the bare value in %.

>>> df
                                   compound   measuredattribute  observedvalue
0  Cc1ccc(S(=O)(=O)c2nc(S(C)(=O)=O)sc2N(C)C)cc1  viability increase           -5.6
1  CC1=C(C(=O)OC(C)C)C(c2cccnc2)n2ncnc2N1 (centres undefined)  viability increase           0.27
2  O=C(c1cccc(S(=O)(=O)N2CCOCC2)c1)N1CCOCC1  viability increase          -0.71

# lookup: viability increase of `COc1ccc(C)cc1NC(=O)c1cnc2scc(C)n2c1=O`
-5.49

Quick one: viability increase for COc1cccc(C2c3c(oc4ccccc4c3=O)C(=O)N2CCCN2CCOCC2)c1 (centres undefined) ?
-3.16

Could you share which viability increase value was measured for `CC(=NCCc1ccccc1)C1=C(O)CSC1=O` ?
-1.75

Given `Cc1ccccc1-c1nnc(-c2ccccc2)o1` , state its recorded viability increase.
-4.15

Item under review: O=C1Nc2ccccc2C(O)(C(=O)NCc2ccco2)N1c1ccc(Cl)cc1 (centres undefined) . Reported viability increase?
-4.11

Record request: viability increase value, item `C=CCn1c(SCC(=O)Nc2cc(C)nn2-c2ccccc2)nnc1C1CCCCC1`
-1.14

Entry under review: `COc1ccc(C(=O)c2coc3ccc(O)c(CN(C)C)c23)cc1` . Reported viability increase?
-2.46

What measured viability increase goes with CC(=O)Nc1ccc(NC(=O)C2CC(=O)N(c3cccc(C)c3C)C2)cc1 (centres undefined) ?
-1.32

What value of viability increase has been recorded for this entry: `CN(CCNC(=O)Cn1c(=O)sc2ccccc21)Cc1ccccc1`
-5.12

Query: viability increase; subject: `Cc1ccc(CNC(=O)c2ccc(Br)o2)cc1`
-0.67

What does the record list as viability increase for `CCOC(=O)C1=C(C)NC(C)=C(C(=O)OCC)C1C(=O)O` ?
-3.51

---

Assay: growth suppression of beta-catenin knockout HCT116, pilot screen, human colon tumor cells (AID 823);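 also: 0% = wells killed by 20 µM Hyamine and 100% = untreated DMSO cell wells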
Details: CellTiter-Glo, 60 h, at 10 µM, stronger effect = lower value
Inconclusive results are not listed.
measuredAttribute: viability (%)
Dear colleague, please return just the value in %, with no unit written.

Bench note: what viability did O=C(NC1CSC/C1=N\O)c1ccccc1 (stereo not given) show?
103

// returns reported viability for input `N#Cc1nc(-c2ccccc2F)oc1NC1CCCCC1`
87.7

Look up viability: `Cc1ccc(-c2noc(CN(C(=O)c3cccc(Br)c3)C(C)C)n2)cc1`
92.5

Could you tell me which viability is on file for CCOC(=O)C1CCN(C(=O)C2c3ccccc3C(=O)N(C)C2c2ccc(OC)cc2)CC1 (stereo not given) ?
76.3

Requested field: viability. Item: Cc1oc2c(c1C(=O)NC(Cc1c[nH]c3ccccc13)C(=O)O)CCCC2 (stereo not given)
100

Fill blank: measured viability of the compound `CCCCn1c(CNC(=O)c2cccs2)nc2ccccc21` is ____.
101

Quick one: viability of CCOc1ccc(C2c3c(oc4cc(C)c(C)cc4c3=O)C(=O)N2CCCN(C)C)cc1OC (stereo not given) ?
108

Sample `Cn1c(CSc2nc3ccccc3s2)n[nH]c1=S` — what was its viability?
96.9

---

Assay: RAM signaling pathway blockade in yeast – S. cerevisiae, Pdr1DBD-CYC8 efflux-inhibited sensitized strain, primary screen (AID 1298);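 also: 0% = DMSO untreated cells without growth and 100% = 10 µM 1-NA-PP1 full growth; higher means more yeast growth rescued from 5-FOA killing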
Settings: S. cerevisiae cbk1-as DSE1-URA3 strain, 5-FOA growth OD615, 2 d; at 50 µM; stronger effect = higher value
measuredAttribute: RAM network inhibition (%)
Express it in %; write the number only.

Requested read-out: RAM network inhibition. Entry: `COc1ccc(NC(=O)Nc2nnc(N3CCC(C)CC3)s2)cc1OC`
1.42

What does the data say about its RAM network inhibition? Entry: `O=C1c2ccccc2C(=O)N1CCc1nc2ccccc2c(=O)n1CCCn1ccnc1`
2.2

Suppose we examine the molecule COc1cccc(N2C(=O)C3ON(c4ccccc4)C(c4cccs4)C3C2=O)c1 (stereo not given) ; what RAM network inhibition value has been reported?
4.23

Endpoint output: RAM network inhibition of `O=c1cc(CSc2nnc(-c3ccccc3)o2)c2ccccc2[nH]1` . Value?
6.08

Query: RAM network inhibition; subject: CC(C)(C)NC(=O)C1CN(S(=O)(=O)c2ccccc2)CCN1S(=O)(=O)c1ccccc1 (stereo not given)
2.81
